Molecular target: full length Aurora-A (AA 1-403) (Homo sapiens, UniProt O14965)
Sequence (O14965 1-403): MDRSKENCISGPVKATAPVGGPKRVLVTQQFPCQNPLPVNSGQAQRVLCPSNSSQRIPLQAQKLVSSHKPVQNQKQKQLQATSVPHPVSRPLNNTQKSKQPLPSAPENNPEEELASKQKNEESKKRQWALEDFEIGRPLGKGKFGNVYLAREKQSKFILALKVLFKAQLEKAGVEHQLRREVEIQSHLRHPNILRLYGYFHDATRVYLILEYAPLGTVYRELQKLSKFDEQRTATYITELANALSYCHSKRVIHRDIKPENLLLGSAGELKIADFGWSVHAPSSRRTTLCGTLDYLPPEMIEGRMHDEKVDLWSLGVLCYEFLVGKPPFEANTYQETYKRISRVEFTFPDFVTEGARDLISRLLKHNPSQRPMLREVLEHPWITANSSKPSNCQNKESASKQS
So I've got a bunch of compounds here, and I need their Ki values.

Form entry - test system: full length Aurora-A (AA 1-403) (Homo sapiens, UniProt O14965); read-out: Ki; compound: CC[C@H](C)NC(=O)[C@H](C)Nc1nc(-c2c[nH]c3ncc(Cl)cc23)ncc1F [Compound 465]
< 500 nM

Field: Ki (full length Aurora-A (AA 1-403) (Homo sapiens, UniProt O14965)). Entry: CC(=O)Nc1cccc(-c2c[nH]c3ncc(Cl)cc23)n1 [Compound 283]
500 to 5000 nM

What is its Ki for full length Aurora-A (AA 1-403) (Homo sapiens, UniProt O14965)? Entry: Nc1nc(-c2c[nH]c3ncc(Cl)cc23)ncc1F [Compound 332]
< 500 nM

Which measured Ki belongs to CNC(=O)[C@H](CC(C)C)Nc1nc(-c2c[nH]c3ncc(Cl)cc23)ncc1F [Compound 393] , tested on full length Aurora-A (AA 1-403) (Homo sapiens, UniProt O14965)?
< 500 nM

----------
Target: full length Aurora-A (AA 1-403) (Homo sapiens, UniProt O14965)
Sequence (O14965 1-403): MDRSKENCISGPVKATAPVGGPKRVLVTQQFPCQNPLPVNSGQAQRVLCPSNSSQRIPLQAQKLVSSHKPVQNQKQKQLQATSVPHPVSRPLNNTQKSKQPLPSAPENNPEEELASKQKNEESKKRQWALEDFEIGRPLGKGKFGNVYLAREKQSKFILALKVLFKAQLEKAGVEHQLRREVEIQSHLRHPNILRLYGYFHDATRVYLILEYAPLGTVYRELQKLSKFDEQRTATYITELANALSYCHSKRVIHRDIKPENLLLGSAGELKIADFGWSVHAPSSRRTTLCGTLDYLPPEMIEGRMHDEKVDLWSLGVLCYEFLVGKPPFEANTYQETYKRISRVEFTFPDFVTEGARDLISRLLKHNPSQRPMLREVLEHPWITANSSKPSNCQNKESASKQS
MEASURE_NAME: Ki

Which Ki is listed for C[C@H](Nc1nc(-c2c[nH]c3ncc(Cl)cc23)ncc1F)C(=O)NCCc1ccccc1 [Compound 433] ?
0.5 to 5 µM

Could you tell me which Ki is on file for C[C@H](Nc1nc(-c2c[nH]c3ncc(CO)cc23)ncc1F)c1ccc(F)cc1 [Compound 334] ?
< 0.5 µM

Can you share its Ki? I mean this molecule: C[C@H](Nc1cc(CO)nc(-c2c[nH]c3ncc(Cl)cc23)n1)c1ccc(F)cc1 [Compound 339]
< 0.5 µM

Name the reported Ki value associated with the molecule C[C@H](Nc1nc(-c2c[nH]c3ncc(Cl)cc23)ncc1F)C(=O)NC1CCCCC1 [Compound 406]
< 0.5 µM

I have this molecule here, Clc1cnc2[nH]cc(-c3cccc(CNc4ccccc4)c3)c2c1 [Compound 186] , and I need its recorded Ki.
< 0.5 µM

Form field: reported Ki of O=C(CNc1nc(-c2c[nH]c3ncc(Cl)cc23)nc2ccccc12)NCC(F)(F)F [Compound 427]
< 0.5 µM

Would you mind telling me what Ki value was observed for Fc1ccc(-c2cnc3[nH]cc(-c4ccc(F)cc4)c3c2)cc1 [Compound 223] ?
0.5 to 5 µM

What does the record list as Ki for Cc1ccccc1Nc1nc(-c2c[nH]c3ncc(Cl)cc23)ncc1F [Compound 299] ?
< 0.5 µM

What value of Ki has been recorded for this entry: CN1CCC(CNc2nc(-c3c[nH]c4ncc(Cl)cc34)ncc2F)CC1 [Compound 372]
< 0.5 µM

For the molecule shown here, C=CC(=O)Nc1cnc2[nH]cc(-c3cccc(N4C[C@@H](C)N(C(C)=O)[C@@H](C)C4)n3)c2c1 [Compound 118] , give the reported Ki.
0.5 to 5 µM

Can you share its Ki? I mean this molecule: CC(=O)N1[C@H](C)CN(c2cccc(-c3c[nH]c4ncc(NC(=O)c5cnccn5)cc34)n2)C[C@@H]1C [Compound 164]
0.5 to 5 µM

Which Ki value belongs to C[C@H](Nc1nc(-c2c[nH]c3ncc(Cl)cc23)ncc1F)C(=O)NCCc1cn(C)cn1 [Compound 434] ?
0.5 to 5 µM

Given the molecule CC(C)CNc1cccc(-c2c[nH]c3ncc(Cl)cc23)n1 [Compound 99] , what is its reported Ki?
< 0.5 µM

Look up Ki: O=C(O)c1ccc(NCc2ccccc2)nc1-c1c[nH]c2ncc(Cl)cc12 [Compound 44]
< 0.5 µM

What Ki value was documented for this molecule, C[C@H](Nc1nc(-c2c[nH]c3ncc(Cl)cc23)ncc1F)C(=O)NCCF [Compound 365] ?
< 0.5 µM

Given C/C=C/C(=O)Nc1cnc2[nH]cc(-c3cccc(N4C[C@@H](C)N(C(C)=O)[C@@H](C)C4)n3)c2c1 [Compound 181] , state its recorded Ki.
0.5 to 5 µM

Form field: reported Ki of CN(C)C(=O)c1ccc(-c2c[nH]c3ncc(-c4ccccc4)cc23)cc1 [Compound 219]
< 0.5 µM

State the recorded Ki for this entry: C[C@H](Nc1nc(-c2c[nH]c3ncc(Cl)cc23)ncc1F)c1cccc(OCCCN(C)C)c1 [Compound 377]
< 0.5 µM

Ki lookup needed for C[C@H](Nc1nc(-c2c[nH]c3ncc(Cl)cc23)ncc1C(F)(F)F)c1ccc(F)cc1 [Compound 371] , thanks.
< 0.5 µM

# input molecule: CC(=O)N1[C@H](C)CN(c2cccc(-c3c[nH]c4ncc(F)cc34)n2)C[C@@H]1C [Compound 50] ; wanted: its Ki
0.5 to 5 µM

Using the record for COC(=O)c1ccc(NCc2ccccc2)nc1-c1c[nH]c2ncc(Cl)cc12 [Compound 45] , report its Ki.
< 0.5 µM

Using the record for C[C@H](Nc1nc(-c2c[nH]c3ncc(Cl)cc23)ncc1F)C(=O)NCCc1nc2ccccc2[nH]1 [Compound 459] , report its Ki.
0.5 to 5 µM

Please look up its Ki: C[C@H](Nc1cc(C(=O)O)nc(-c2c[nH]c3ncc(Cl)cc23)n1)c1ccc(F)cc1 [Compound 323]
< 0.5 µM

What does the data say about its Ki? Entry: C#Cc1cnc2[nH]cc(-c3ncc(F)c(N[C@@H](C)c4ccc(F)cc4)n3)c2c1 [Compound 374]
< 0.5 µM
